Where do the numbers come from? From patent US20070128217A1.

# Test system: antibodies in sera from SARS patients (sera 1a, 1b, 2, 6, 37, 62, London, SARS-yellow, SARS-green)
# Assay type: binding, human
Items are presented alongside their recorded Binding of serum London to looped/cyclic peptides of protein X2 of SARS-CoV Urbani.
Could you respond with only the numeric value?

// sample `KLLQTLVLKMLHSSS` , its Binding of serum London to looped/cyclic peptides of protein X2 of SARS-CoV Urbani was 0.4

// `KYTQSTALQELLIQQ` : Binding of serum London to looped/cyclic peptides of protein X2 of SARS-CoV Urbani value = 0.5

// recorded Binding of serum London to looped/cyclic peptides of protein X2 of SARS-CoV Urbani for `SLSLHKLLQTLVLKM` : 1.2

Value of Binding of serum London to looped/cyclic peptides of protein X2 of SARS-CoV Urbani reported for the sequence `QELLIQQWIQFMMSR` is 1.2

Binding of serum London to looped/cyclic peptides of protein X2 of SARS-CoV Urbani reading for `SPKFTTSLSLHKLLQ` : 0.2

// `LACLCKHKKVSTNLC` : Binding of serum London to looped/cyclic peptides of protein X2 of SARS-CoV Urbani value = 0.2

---

# Test system: antibodies in sera from SARS patients (sera 1a, 1b, 2, 6, 37, 62, London, SARS-yellow, SARS-green)
# Assay type: binding, human
measurementName: Binding of serum SARS-green to looped/cyclic peptides of protein X5 of SARS-CoV Urbani
A bare number is all that is needed in reply.

CALGKVLPFHRWHTM :: 0.4

Quick note, Binding of serum SARS-green to looped/cyclic peptides of protein X5 of SARS-CoV Urbani for `AWLCALGKVLPFHRW` landed at 0.5

Summary for this sequence, `QTCTPNVTINCQDPA` : Binding of serum SARS-green to looped/cyclic peptides of protein X5 of SARS-CoV Urbani is 0.0

Entry under test: `TRGNTYSTAWLCALG` . Its Binding of serum SARS-green to looped/cyclic peptides of protein X5 of SARS-CoV Urbani was 0.3

Entry under test: `CLKILVRYNTRGNTY` . Its Binding of serum SARS-green to looped/cyclic peptides of protein X5 of SARS-CoV Urbani was 0.4

Value of Binding of serum SARS-green to looped/cyclic peptides of protein X5 of SARS-CoV Urbani reported for the sequence `AAFRDVLVVLNKRTN` is 0.4

The sequence `GALIARCWYLHEGHQ` showed Binding of serum SARS-green to looped/cyclic peptides of protein X5 of SARS-CoV Urbani equal to 0.8

Binding of serum SARS-green to looped/cyclic peptides of protein X5 of SARS-CoV Urbani reading for `TPNVTINCQDPAGGA` : 0.2

---

# Test system: antibodies in sera from SARS patients (sera 1a, 1b, 2, 6, 37, 62, London, SARS-yellow, SARS-green)
# Assay type: binding, human
measurementName: Binding of serum 62 to looped/cyclic peptide (PEPSCAN-ELISA)
// response body must contain only the number

KNPLLYDANYFVCWH :: 0.6
DLFMRFFTLGSITAQ :: 0.5
PFGWLVIGVAFLAVF :: 0.5
YSHLLLVAAGMEAQF :: 0.5
QASLPFGWLVIGVAF :: 0.4

So for `CKSKNPLLYDANYFV` , the logged Binding of serum 62 to looped/cyclic peptide (PEPSCAN-ELISA) turned out to be 0.8

# sequence `LFVTIYSHLLLVAAG` ; its Binding of serum 62 to looped/cyclic peptide (PEPSCAN-ELISA) = 0.5

Form: sequence = `KIIALNKRWQLALYK` ; Binding of serum 62 to looped/cyclic peptide (PEPSCAN-ELISA) = 0.7

For this sequence ( `LCWKCKSKNPLLYDA` ), measured Binding of serum 62 to looped/cyclic peptide (PEPSCAN-ELISA) is 0.8

---

# Test system: control sera (pooled serum of ten healthy LUMC hospital workers; commercial negative donor pooled serum from the Dutch bloodbank)
# Assay type: binding, human
Catalogue of Binding of Control serum LUMC to looped peptides values

Binding of Control serum LUMC to looped peptides measured on `HKLLQTLVLKMLHSS` = 0.7

For this sequence ( `NQRSAPRITFGGPTD` ), measured Binding of Control serum LUMC to looped peptides is 0.7

Summary for this sequence, `TGIENATFFIFNKLV` : Binding of Control serum LUMC to looped peptides is 0.7

Item: `TAAFRDVLVVLNKRT` | Binding of Control serum LUMC to looped peptides: 0.6

Reported Binding of Control serum LUMC to looped peptides of `LLLVAAGMEAQFLYL` : 0.7

For record `QGLPNNTASWFTALT` the listed Binding of Control serum LUMC to looped peptides is 0.8

// sample `TAFQHQNSKKTTKLV` , its Binding of Control serum LUMC to looped peptides was 0.4

Note to self: Binding of Control serum LUMC to looped peptides recorded for `DGKMKELSPRWYFYY` was 0.7

---

# Test system: antibodies in sera from SARS patients (sera 1a, 1b, 2, 6, 37, 62, London, SARS-yellow, SARS-green)
# Format: binding, human
Listing of entries alongside the reported Binding of serum London to linear peptides of protein M of SARS-CoV Urbani.
// no unit, no text: just the number

Field: example entries. Status: answers known.
RPLMESELVIGAVII :: 0.4
RLFARTRSMWSFNPE :: 0.4
LFLAWIMLLQFAYSN :: 0.2
RFLYIIKLVFLWLLW :: 0.6

response.value for `LWPVTLACFVLAAVY` (field: Binding of serum London to linear peptides of protein M of SARS-CoV Urbani) = 0.3

Note to self: Binding of serum London to linear peptides of protein M of SARS-CoV Urbani recorded for `KQLLEQWNLVIGFLF` was 0.3

---

# Tested on: control sera (pooled serum of ten healthy LUMC hospital workers; commercial negative donor pooled serum from the Dutch bloodbank)
# Format: binding, human
# Parameters: unit not given here
Each record here notes measured Binding of Control serum Blood-bank to linear peptides of the protein M of SARS-CoV Urbani.

Some solved cases for reference:
NYKLNTDHAGSNDNI :: 0.7
ELKQLLEQWNLVIGF :: 0.8
RFLYIIKLVFLWLLW :: 0.7
PLMESELVIGAVIIR :: 1.0

Noted for `NGTITVEELKQLLEQ` : its Binding of Control serum Blood-bank to linear peptides of the protein M of SARS-CoV Urbani reads 0.7

Measured Binding of Control serum Blood-bank to linear peptides of the protein M of SARS-CoV Urbani, `SNRNRFLYIIKLVFL` : 0.7

Kindly note the recorded Binding of Control serum Blood-bank to linear peptides of the protein M of SARS-CoV Urbani for `VGLMWLSYFVASFRL` , which is 0.6

response.value for `ATSRTLSYYKLGASQ` (field: Binding of Control serum Blood-bank to linear peptides of the protein M of SARS-CoV Urbani) = 0.7

// recorded Binding of Control serum Blood-bank to linear peptides of the protein M of SARS-CoV Urbani for `AWIMLLQFAYSNRNR` : 0.7

---

The sequences listed here are annotated with their Binding of Control Serum Blood-Bank to Looped peptides of the protein M of SARS-CoV Urbani.
# System: control sera (pooled serum of ten healthy LUMC hospital workers; commercial negative donor pooled serum from the Dutch bloodbank)
# Format: binding, human
# Set-up: unit not given here
Form field (numeric): enter value without unit.

Known results for sequences:
YRINWVTGGIAIAMA :: 0.7
ACIVGLMWLSYFVAS :: 0.6
YKLGASQRVGTDSGF :: 0.7
FLAWIMLLQFAYSNR :: 0.8
RPLMESELVIGAVII :: 0.8

Query `KLNTDHAGSNDNIAL` yields Binding of Control Serum Blood-Bank to Looped peptides of the protein M of SARS-CoV Urbani of 1.0

The recorded Binding of Control Serum Blood-Bank to Looped peptides of the protein M of SARS-CoV Urbani for entry `INWVTGGIAIAMACI` equals 0.6

Record summary for `HPLGRCDIKDLPKEI` : reported Binding of Control Serum Blood-Bank to Looped peptides of the protein M of SARS-CoV Urbani = 1.0

---

# System: antibodies in sera from SARS patients (sera 1a, 1b, 2, 6, 37, 62, London, SARS-yellow, SARS-green)
# Format: binding, human
// assign T if Binding of serum SARS-yellow to linear peptides of protein X2 falls strictly below 0.5, else F (ties count as F)

Here's what some known entries look like.
IQFMMSRRRLLACLC :: F
ITMTTVYHITVSQIQ :: T
WIQFMMSRRRLLACL :: F

Problem: Lab log: compare recorded Binding of serum SARS-yellow to linear peptides of protein X2 with 0.5; is it strictly lower for `SLLKTHRMCKYTQST` ?
Result: F

Problem: Take the sequence `QELLIQQWIQFMMSR` and say whether its Binding of serum SARS-yellow to linear peptides of protein X2 is less than 0.5.
Result: F
